readout-name: melting point

>>> measurement("CNC(=O)Cc1c(-c2ccc(F)cc2)nc2ccc(Cl)cn12")
"254 to 256 °C"
>>> measurement("CN(C)C(=O)Cc1c(-c2ccc(Cl)cc2)nc2ccc(Br)cn12")
"234 to 236 °C"
>>> measurement("NC(=O)Cc1c(-c2ccc(F)cc2)nc2ccc(Cl)cn12")
"250 to 252 °C"
>>> measurement("CNC(=O)Cc1c(-c2ccc(I)cc2)nc2ccc(Cl)cn12")
"308 to 310 °C"
>>> measurement("CCCN(C)C(=O)Cc1c(-c2ccc(I)cc2)nc2ccc(Cl)cn12")
"170 to 172 °C"
>>> measurement("CCCCN(CCCC)C(=O)Cc1c(-c2ccc(I)cc2)nc2ccc(Cl)cn12")
"250 to 252 °C"
>>> measurement("CN(C)C(=O)Cc1c(-c2ccc(I)cc2)nc2ccc(Cl)cn12")
"216 to 218 °C"
>>> measurement("CCCN(CCC)C(=O)Cc1c(-c2ccc(I)cc2)nc2ccc(Cl)cn12")
"152 to 153 °C"
>>> measurement("CNC(=O)Cc1c(-c2ccc(Cl)cc2)nc2ccc(Br)cn12")
"298 to 300 °C"
